Biological target: Large T antigen (Simian virus 40) (UniProt P03070)
Sequence (P03070 whole entry, looked up): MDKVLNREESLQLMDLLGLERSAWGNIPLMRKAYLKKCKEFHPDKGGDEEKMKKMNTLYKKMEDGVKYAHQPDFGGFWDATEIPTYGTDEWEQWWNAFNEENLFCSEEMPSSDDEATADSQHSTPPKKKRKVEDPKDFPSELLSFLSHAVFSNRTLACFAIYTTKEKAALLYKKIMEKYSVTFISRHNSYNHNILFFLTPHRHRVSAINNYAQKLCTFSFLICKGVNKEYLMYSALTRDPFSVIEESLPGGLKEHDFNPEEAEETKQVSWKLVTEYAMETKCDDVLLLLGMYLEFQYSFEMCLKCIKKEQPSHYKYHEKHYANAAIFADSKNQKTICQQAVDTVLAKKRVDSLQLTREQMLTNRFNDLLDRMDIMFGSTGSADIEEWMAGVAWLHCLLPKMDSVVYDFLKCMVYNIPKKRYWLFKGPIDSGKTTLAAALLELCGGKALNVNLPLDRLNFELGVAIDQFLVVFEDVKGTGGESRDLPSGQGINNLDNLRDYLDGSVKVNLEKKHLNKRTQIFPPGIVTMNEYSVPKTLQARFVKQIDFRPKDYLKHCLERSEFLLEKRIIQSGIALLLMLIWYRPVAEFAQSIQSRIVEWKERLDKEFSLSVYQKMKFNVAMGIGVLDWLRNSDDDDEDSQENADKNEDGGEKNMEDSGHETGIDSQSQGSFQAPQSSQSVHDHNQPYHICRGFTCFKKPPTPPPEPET
Test: SV40 large T antigen inhibitors, biochemical (AID 1903)
Conditions: SV40 large T antigen ATPase/helicase inhibition assay; at 20 µM; hits give high values
About 1,200 (0.39%) of roughly 310,000 compounds were called active. Not all results are given here. Results with a measured potency or affinity are listed apart.
inhibition values, listed per item
Express it in %; write the number only.

1) Nc1cc(-c2ccc(Br)cc2)[nH]n1 :: 8.97
2) O=C(NC1CCS(=O)(=O)C1)Oc1ccc(Cl)cc1 (configuration not stated) :: 9.05
3) CCN(CC)c1ccc(NC(=O)CN2CCN(c3ccc(F)cc3)CC2)cc1 :: 22.8

What value of inhibition has been reported for the following compound? `COc1cc(S(=O)(=O)N2CCOCC2)cc(C(=O)c2nccn2C)c1OC`
-1.37

Give its inhibition value. Item: `Oc1ccc(Br)cc1-c1cc(-c2ccccc2)n[nH]1`
23.6

Requested read-out: inhibition. Entry: `Cc1nnc(NC(=O)CSc2n[nH]c(-c3ccccc3)n2)s1`
-0.77

Sample O=C(NCC(c1cccs1)N1CCOCC1)c1ccc(Cl)cc1 (configuration not stated) — what was its inhibition?
20.7

For `CCN(CC(=O)Nc1c(F)cccc1F)C(=O)/C=C/c1ccc(Br)s1` , what is its reported inhibition?
18.8

Using the record for `Cc1cccc(/C=N/n2c(C)nnc2C)c1` , report its inhibition.
10.3

Could you share which inhibition value was measured for `Cc1occc1-c1nnc(SCC(=O)N2CCOCC2)o1` ?
1.14

Returns the measured inhibition for the input compound. Input: `CCOC(=O)N1CCC(N2C(=O)c3ccc(C(=O)NCCOC)cc3C2=O)CC1`
5.99

Please report the recorded inhibition for `COc1ccc(CCNC(=S)Nc2ccc(C(C)C)cc2)cc1` .
13.7

Can you share its inhibition? I mean this compound: `O=C(CN(c1ccccc1Cl)S(=O)(=O)c1ccccc1)N/N=C/c1ccccc1C(=O)O`
9.75

Fill in: inhibition of `CC(=C/c1ccccc1)/C=N/n1c(-c2ccncc2)n[nH]c1=S` is ___
19

Suppose we examine the compound `COc1cccc(CN(C)CC(=O)NCc2ccc(F)cc2)c1OC` ; what inhibition value has been reported?
-3.04

Given the entry Cc1ccc(S(=O)(=O)N(C)C)cc1NC(=O)CSc1nc2ccccc2c(=O)n1CC1CCCO1 (configuration not stated) , report its measured inhibition.
23.7

If you can, please state the reported inhibition value of `Cc1c(CN(C)C)c2c(n1Cc1ccccc1)C(=O)c1ccccc1-2` .
2.92

* * *

Target: Large T antigen (Simian virus 40)
Assay: SV40 large T antigen inhibitors, biochemical (AID 1903)
Details: SV40 large T antigen ATPase/helicase inhibition assay; at 20 µM; hits give high values
The campaign covered roughly 310,000 compounds. About 1,200 (0.39%) were called active. Not all results are given here. Potency and affinity values are given separately.
Measured inhibition, listed per entry for reference.
All answers are understood in %, so give the number only.

A selection of reference data follows.
1) CCN(CC)C(=O)c1cc(Cl)ccn1 :: -2.78
2) COc1ccc(OC)c(N(CC(=O)NCc2ccccn2)S(C)(=O)=O)c1 :: 5.82
3) O=C(CN(c1ccccc1F)S(=O)(=O)c1ccccc1)Nc1ccccc1C(=O)N1CCOCC1 :: 11.3

Then this compound:
Can you look up the measured inhibition of `COC(=O)C1=C[C@@H](C(=O)OC)[C@@H]2C3=C(C(=O)[C@]2(CC(C)C)NC(=O)c2ccccc2)[C@H](C)n2c(=O)n(-c4ccccc4)c(=O)n2[C@@H]3C1` for me?
19.3

* * *

Molecular target: Large T antigen (Simian virus 40)
Experiment: SV40 large T antigen inhibitors, biochemical (AID 1903)
Conditions: SV40 large T antigen ATPase/helicase inhibition assay; at 20 µM; hits give high values
In all, about 310,000 compounds went through this assay and about 1,200 (0.39%) were called active. A selection follows. Results with a measured potency or affinity are listed apart.
readout label: inhibition

Solved cases below.
1. COc1cnc(-c2ccccn2)nc1Oc1ccccc1Cl :: 5.1% (inactive)
2. NC(=O)CN1CCN(S(=O)(=O)c2ccc(Cl)cc2)CC1 :: 4.21% (inactive)
3. Cc1ccc(-c2noc(C3CCCN(S(=O)(=O)c4ccc5ccccc5c4)C3)n2)o1 (configuration not stated) :: -0.86% (inactive)
4. Cc1nc(-c2ccc(C(=O)Nc3cccc(Br)c3)cc2)cs1 :: 5.4% (inactive)
5. O=C(N/N=C(\c1ccccc1)c1cccnc1)c1cccc(F)c1 :: 8.05% (inactive)

Reported inhibition for `O=C(C[n+]1ccccc1)N/N=C/c1ccc(F)cc1` : what is it?
8.34% (inactive)

Quick one: inhibition of `Cc1cc(F)ccc1NC(=O)c1cccnc1` ?
3.85% (inactive)

* * *

Target: Large T antigen (Simian virus 40)
Test: SV40 large T antigen inhibitors, biochemical (AID 1903)
Settings: SV40 large T antigen ATPase/helicase inhibition assay; at 20 µM; hits give high values
About 1,200 (0.39%) of roughly 310,000 compounds were called active. A selection follows. Potency and affinity values are given separately.
readout label: inhibition (%)
Number in %, nothing else.

1. O=C(NC1CCN(C(=O)Nc2ccc(F)cc2)CC1)c1ccc(F)cc1 :: -6.41
2. CN(C)/C=N/c1c(C#N)cnn1-c1ccccc1 :: 9.99
3. CC(=O)NCCc1c[nH]c2ccc(OCc3ccccc3)cc12 :: 17
4. CCN(CC)C(=O)CSc1nc2ccc(NC(=O)CSc3nnc(N)s3)cc2s1 :: 5.67

Turning to the following molecule.
So what inhibition did `CCN(CC)S(=O)(=O)c1ccc(Nc2nc3ccccc3n3nnnc23)cc1` get with Large T antigen (Simian virus 40)?
-2.08

* * *

Biological target: Large T antigen (Simian virus 40)
Assay: SV40 large T antigen inhibitors, biochemical (AID 1903)
Conditions: SV40 large T antigen ATPase/helicase inhibition assay; at 20 µM; hits give high values
The campaign covered roughly 310,000 compounds. About 1,200 (0.39%) were called active. These entries were drawn from the full list. Potency and affinity values are given separately.
readout label: inhibition (%)
Give the value, in units of %, as a plain number.

Worked set:
1. COC(=O)c1ccccc1-c1ccc(/C=C2\C(=O)N(c3ccccc3)N=C2c2ccccc2)o1 :: -14
2. Cc1ccc(C(=O)/C=C/c2ccc(-c3ccccc3[N+](=O)[O-])o2)cc1 :: -1.93
3. O=c1cc(-c2ccccc2)nc(N2CCN(Cc3ccc4c(c3)OCO4)CC2)[nH]1 :: 9.11
4. CC1=NN(c2ccc(Br)cc2)C(=O)/C1=C/c1ccc(-c2ccccc2C(=O)O)o1 :: 33.3

inhibition for `N=C1/C(=C\c2ccc(OCc3ccccc3)cc2)C(=O)N=C2SC(N3CCCC3)=NN12` ?
10.7

For the compound shown here, `O=C(COC(=O)COc1ccccc1[N+](=O)[O-])Nc1cccc(Br)c1` , give the reported inhibition.
-10.5

Need inhibition of `COc1ccccc1NCCC(=O)O` , thanks.
26.5

Any idea what inhibition was measured for `CCN(CC)c1ccc(NC(=O)COC(=O)/C=C/c2nc3ccccc3s2)cc1` ?
37.1

Name the recorded inhibition for `CCOC(=O)c1[nH]c2ccc(OC)cc2c1N=CN(C)C` .
16.9

What value of inhibition has been recorded for this entry: `COCOc1cc(O)c2c(=O)c(OCOC)c(-c3ccc(OCOC)c(OCOC)c3)oc2c1`
7.99

inhibition lookup needed for `CN(C)c1ccc(N/C=C/C(=O)C(C)(C)C)cc1` , thanks.
27.8

Record request: inhibition value, item `Cc1ccc([N+](=O)[O-])cc1N`
-1.11

Give the measured inhibition of `Cc1ccc(S(=O)(=O)Nc2ccc(Oc3cccnc3)nc2)cc1` .
9.11

Query: inhibition; subject: `CCn1nc(C(=O)Nc2nc3ccc(C)cc3s2)c2ccccc2c1=O`
0.39

Would you mind telling me what inhibition value was observed for `CC(NC(=O)Nc1ccccc1O)(C(F)(F)F)C(F)(F)F` ?
10.1

Find the recorded inhibition belonging to `Cc1ccc(Nc2nc(-c3c(C)nc4ncccn34)cs2)cc1` and report it.
17.2

Query (compound): NC(=O)CC(NC(=O)Cc1cccc2ccccc12)c1ccc(NC2CC3CCC2C3)c([N+](=O)[O-])c1 (stereo not drawn) ; field requested: inhibition
17.8

Which value of inhibition has been reported for `Cc1cc[n+](CC(=O)Nc2ccccc2)cc1` in the records?
-1.49

Tell me the measured inhibition of `O=C1NCCN/C1=C\C(=O)c1ccc(Cl)cc1` , please.
12.3

I would be grateful if you could share the reported inhibition for `Cc1cc(C)n(CCc2nc(-c3cccs3)cs2)n1` .
0.46

* * *

Target: Large T antigen (Simian virus 40) (UniProt P03070)
Assay: SV40 large T antigen inhibitors, biochemical (AID 1903)
Settings: SV40 large T antigen ATPase/helicase inhibition assay; at 20 µM; hits give high values
Out of some 310,000 compounds screened, about 1,200 (0.39%) were called active. Not all results are given here. Entries with a potency or affinity are not part of this list.
Known inhibition of a selection of molecules
Kindly answer with a numeric value in %, unit omitted.

1) CC1CCCCN1C(=O)CSc1nc(N)nc(N)n1 (stereo not given) :: 3.86

// switching to the query molecule
Find the recorded inhibition belonging to `CCN(CC)c1ccc(Nc2cc3n(c(=O)n2)CCc2cc(OC)c(OC)cc2-3)cc1` and report it.
31.5
